# Tested on: KM12 colon
# PROCEDURE_SUMMARY: NCI-60 one-dose screen, 48 h
# MEASUREMENT_CONTEXT: 10 µM unless noted
This is part of a sample that, as a whole, favours compounds with a hit. Of some 83,000 tested, about 20% had one in any assay. The source made the active and inactive calls. How the source made its calls: active means growth percent below 10; inactive means the rest.
Entry note: the call must match one of active, inactive

>>> class_label("Cc1ccccc1SSc1ccccc1C")
"inactive"
>>> class_label("CN1CCCc2cc(/C=C3\\SC(=S)N(C(Cc4ccc(O)cc4)C(=O)O)C3=O)ccc21 (stereo not given)")
"inactive"
>>> class_label("Cc1ccc(S(=O)(=O)OC[C@@]2(C)CC[C@]3(C)CC[C@]4(C)C(=CC[C@@H]5[C@@]6(C)CCCNC(C)(C)[C@@H]6CC[C@]54C)[C@@H]3C2)cc1")
"active"

input: Entry CCCCCCCCN(CCCCCCCC)CC(O)c1cc(Cl)ccc1OC (stereo not given) : call = ?
output: inactive

====

# System: SF-268 CNS
# PROCEDURE_SUMMARY: NCI-60 one-dose screen, 48 h
# MEASUREMENT_CONTEXT: 10 µM unless noted
This is part of a sample that, as a whole, favours compounds with a hit. Of some 83,000 tested, about 20% had one in any assay. Calls of active or inactive are those of the source. The calls were made as follows: active = growth percent below 10; inactive = the rest.
Entry note: the call must match one of 1 (yes) (active), 0 (no) (inactive)

Use these answered entries as a reference point.
>>> class_label("COc1ccc(/C=N/NC(=O)CN2CCN(c3cc4c(cc3F)c(=O)c(C(=O)O)cn4C3CC3)CC2)cc1O")
"0 (no)"
>>> class_label("O=C1/C(=C/c2ccc(-c3cccc(C(F)(F)F)c3)o2)SC(=S)N1CCc1ccc(O)cc1")
"0 (no)"
>>> class_label("C=C1C(=O)O[C@H]2[C@H]1CC/C(COC(=O)NCCCCNC(=O)OC/C1=C/CC[C@@]3(C)O[C@H]3[C@H]3OC(=O)C(=C)[C@@H]3CC1)=C\\CC[C@@]1(C)O[C@@H]21")
"0 (no)"

Could you now consider this next compound?
input: Entry "O=C1C=C(Nc2ccccc2)c2ncccc2C1=O" : call = ?
output: 1 (yes)

====

This section presents compounds with their documented growth values.
# System: OVCAR-8 ovarian
# PROCEDURE_SUMMARY: NCI-60 one-dose screen, 48 h (100 = growth as untreated, 0 = no growth, -100 = all killed)
# MEASUREMENT_CONTEXT: 10 µM unless noted
The panel holds about 83,000 compounds, 20% with a hit somewhere; the sample as a whole holds those more often.
Please reply with the bare figure in % and do not write the unit itself.

A selection of reference data follows.
>>> data_value("CCNC(=O)Oc1ccc(/C(=C(/C)Cc2ccc(OC)cc2)c2ccc(OCCN(CC)CC)cc2)cc1")
74.8
>>> data_value("CCOC(=O)n1cc(-c2nonc2-c2cn(C)c3ccc(OC)cc23)c2cc(F)ccc21")
75.7
>>> data_value("CCOc1ccccc1NC(=O)c1cc2ccccc2cc1O")
52
>>> data_value("COc1ccc(Oc2nc(Nc3ccc(N4CCOCC4)cc3)ncc2NC(=O)c2cccc(C(F)(F)F)c2)cc1")
78.5
>>> data_value("CCCCCCCCN(CCCCCCCC)CC(O)c1cc(Cl)ccc1OC (stereo unspecified)")
87.9
>>> data_value("CC/C(=C(/c1ccc(Cl)cc1)c1ccc(OCCN2CCOCC2)cc1)c1ccccc1")
91.6
>>> data_value("CCC(=O)Oc1cc(Cl)c(Cl)cc1Cl")
96.9
>>> data_value("COc1cc2ncnc(Nc3ccc(F)c(Cl)c3)c2cc1OCC(=O)N1CCCCC1")
89.2
>>> data_value("O=C(N/N=C/c1ccc(O)cc1O)c1cccc(Nc2ccnc(C(F)(F)F)c2)c1")
22.7
>>> data_value("Cc1ccccc1SSc1ccccc1C")
84.1

input: Recorded growth for "CCOC(=O)c1nnn(Cc2cc(=O)oc3c2ccc2ccccc23)c1C" , please?
output: 98.1

input: Here is the next compound: "COC1=CC(=O)C(OC)=C(O)C1=O"
output: 103

input: Here is the next compound: CCN1C(=S)N(CC)C2C1NC(=S)N2/N=C/C=C/c1ccccc1 (stereo unspecified)
output: 41.6

input: Here is the next compound: "COc1ccc(/C=N/NC(=O)CN2CCN(c3cc4c(cc3F)c(=O)c(C(=O)O)cn4C3CC3)CC2)cc1O"
output: 95.1

input: Here is the next compound: "COc1cc(/C=N/NC(=O)CCN2c3ccccc3Sc3ccccc32)cc(OC)c1OC"
output: 86.5

input: Here is the next compound: "CON1CCC[C@]2(C)[C@H]3CC[C@@H]4[C@H]5[C@@H](O)C(C)(C)CC[C@]5(CO)CC[C@@]4(C)[C@]3(C)CC[C@H]2C1(C)C"
output: 95.2

input: Here is the next compound: "CCCCCCCCCCCCCCCCCCOc1cccc(CC(=O)OCC[N+](CC)(CC)CC)c1"
output: 41.4

input: Here is the next compound: "CN(C)C1CCN(C(=O)c2ccc(NC(=O)Nc3ccc(-c4nc(N5CCOCC5)c5cccn5n4)cc3)cc2)CC1"
output: -0.587

====

# Test system: DU-145 prostate
# PROCEDURE_SUMMARY: NCI-60 one-dose screen, 48 h
# MEASUREMENT_CONTEXT: 10 µM unless noted
Compounds without any hit were thinned out: in the full panel of roughly 83,000, 20% have a hit. Activity calls are given as the source filed them. Rule for the calls: active = growth percent below 10; inactive = the rest.
Entry note: the call must match one of label 1 for active, label 0 for inactive

>>> class_label("O=C(Nc1ncc(Cc2cccc(C(F)(F)F)c2)s1)c1ccc(-n2cnnn2)cc1")
"label 0"
>>> class_label("Cc1ccc(NC(=O)c2sc3nc(C)c(C(=O)c4ccccc4)cc3c2N)cc1")
"label 0"
>>> class_label("Cc1ccc(/C=C/c2c(C(=O)/C=C/c3ccccc3)c(C)nc3ccccc23)cc1")
"label 0"
>>> class_label("Cc1ccc(C(=O)Nc2ccc(CN3CCN(C)CC3)c(C(F)(F)F)c2)cc1C#Cc1cnc(N)cc1C#N")
"label 1"

input: Entry "O=C1C(c2c[nH]c3ccccc23)=C(c2coc3cc(Br)ccc23)C(=O)N1O" : call = ?
output: label 0

input: Here is the next molecule: "CN(C)CCCn1c2nc(=O)[nH]c(=O)c-2nc2cc(Cl)c(Cl)cc21"
output: label 0

input: Here is the next molecule: "C=C(C)[C@@H]1CC[C@]2(C(=O)N3CCN(C)CC3)CC[C@]3(C)[C@H](CC[C@@H]4[C@@]5(C)CC(CCCNC(C)=O)(CCCNC(C)=O)[C@H](OC(C)=O)C(C)(C)[C@@H]5CC[C@]43C)[C@@H]12"
output: label 0

input: Here is the next molecule: "C=C(C)[C@@H]1CC[C@]2(C)[C@H](CC(=O)N[C@H]3[C@@H]4C[C@](C)(C(=O)OC)CC[C@]4(C)CC[C@]32C)[C@@]1(C)CCC#N"
output: label 0

input: Here is the next molecule: "O=C1CCc2c(sc3[nH]c(=S)n(Cc4ccc(Cl)cc4)c(=O)c23)C1"
output: label 0

====

This section presents compounds with their documented growth values.
# Test system: IGROV1 ovarian
# PROCEDURE_SUMMARY: NCI-60 one-dose screen, 48 h (100 = growth as untreated, 0 = no growth, -100 = all killed)
# MEASUREMENT_CONTEXT: 10 µM
# Protocol: Growth inhibition of the IGROV1 human tumor cell line is measured as a screen for anti-cancer activity. Cells are grown in 96 well plates and exposed to the test compound for 48 hours. Compounds are tested at a single concentration, which is 10^-5 M for most compounds. The reported endpoint is percent growth (GI% or GIPRCNT), where numbers from 0 - 100% represent growth inhibition, and numbers from -100% - 0 represent cell death. For example, a value of 40 represents 60% growth inhibition. […]
About 83,000 compounds went through this panel and 20% of them were active in at least one assay; those are over-represented in the sample as a whole.
Please reply with the bare figure in % and do not write the unit itself.

>>> data_value("O=C(/C=C/c1cccc(Oc2ccc(Cl)cc2)c1)c1ccccc1")
102
>>> data_value("COc1ccc(C(=O)/C=C/c2ccc(OCc3cccc(C(F)(F)F)c3)c(OC)c2)cc1OC")
93.6
>>> data_value("CC(=O)/C=C/c1ccc(N(C)Cc2ccc(C(C)(C)C)cc2)cc1")
99
>>> data_value("CC(=O)/C=C/c1ccc(OCc2ccc(C(C)(C)C)cc2)cc1")
98.6
>>> data_value("CCN(Cc1ccccc1)c1ccc(/C=C2\\COc3ccccc3C2=O)cc1")
99.1

input: Recorded growth for "CC(=O)/C=C/c1ccc(N(CCO)Cc2ccc(C(C)(C)C)cc2)cc1" , please?
output: 96.6

====

# Test system: HS 578T breast
# PROCEDURE_SUMMARY: NCI-60 one-dose screen, 48 h (100 = growth as untreated, 0 = no growth, -100 = all killed)
# MEASUREMENT_CONTEXT: 10 µM unless noted
The panel holds about 83,000 compounds, 20% with a hit somewhere; the sample as a whole holds those more often.
Label Met for high-side growth (at or above 90%) and Not met for low-side growth (below it).

>>> class_label("COc1cc(-c2nn(-c3cccc(NC(=O)CCN4CCN(C)CC4)c3)cc2-c2ccncc2)ccc1Cl")
"Not met"
>>> class_label("CN(C)CC1(C)Cc2ccsc2C1O (stereo not given)")
"Met"

input: Has CCCCC1COc2cccc3c2N1C=C/C3=C\C(=O)N(C)c1cccc(Cl)c1 (stereo not given) a recorded growth greater than or equal to 90%?
output: Met

input: Here is the next compound: "CN(C)C(=O)c1cc2cnc(Nc3ccc(-c4csc5c(=S)cc(N6CCOCC6)oc45)cc3)nc2n1C1CCCC1"
output: Not met

input: Here is the next compound: COC(=O)c1[nH]nc(OC)c1C1(C(C#N)c2nc3ccccc3s2)CCCc2ccccc21 (stereo not given)
output: Met

Recorded values, source PubChem BioAssay (NCI).
